Tested on: M14 melanoma
testSummary: NCI-60 one-dose screen, 48 h (100 = growth as untreated, 0 = no growth, -100 = all killed)
experimentalConditions: 10 µM unless noted
Compounds without any hit were thinned out: in the full panel of roughly 83,000, 20% have a hit.
Kind request: treat 90% as inclusive, so growth at 90% or higher is true, anything lower is false.

Sample answers from the record:
compoundString	experimentalSystem	className
CC(C)c1ccc(C(=O)OC2CCCC2)cc1	M14 melanoma	true
CC1(O)CCCCCC1	M14 melanoma	true
O=S(=O)(O)c1cnccn1	M14 melanoma	true

Quick check: does COc1cc(/C=C/c2ccnc3ccccc23)cc(OC)c1OC have growth greater than or equal to 90%?
false

Please indicate if the recorded growth for N=C(N)Sc1cccc[n+]1[O-] meets or exceeds 90%.
false

Given O=C1Nc2ccc(Br)cc2C1=O , state whether its growth is at least 90%.
true

Tell me whether growth is at least 90% here: CN=C(N)N/N=C(\c1ccccc1)c1ccc(Br)cc1
false

###

Test system: SN12C renal
testSummary: NCI-60 one-dose screen, 48 h (100 = growth as untreated, 0 = no growth, -100 = all killed)
experimentalConditions: 10 µM unless noted
This is part of a sample that, as a whole, favours compounds with a hit. Of some 83,000 tested, about 20% had one in any assay.
Please note: growth exactly at 20% is class 0. Only values below 20% get class 1.

compound	experimentalSystem	className
CCCCCCCCCCCCCCCC[N+]1(C)CCCC1c1cccnc1 (stereo not drawn)	SN12C renal	class 0
CCCCCCCCC(=O)OCCCC(CCC(CCC1CCCO1)OC(=O)CCCCCCCC)OC(=O)CCCCCCCC (stereo not drawn)	SN12C renal	class 0
O=C1c2ccccc2Cc2cccc(Cl)c21	SN12C renal	class 0
Oc1ccc2c(c1)CCc1ccccc1-2	SN12C renal	class 0
CCN(CC)CC(O)CNc1ccc(NCC2CO2)c2c1C(=O)c1ccccc1C2=O (stereo not drawn)	SN12C renal	class 1

is_below(growth, 20%) for C(=N\Nc1ccc2ccccc2n1)/c1ccccn1 ?
class 1

Dear reviewer, please state whether O=[N+]([O-])c1ccc([I+]c2ccccc2)cc1 has growth strictly beneath 20%.
class 1

Is the reported growth for O=C(O)c1cc2c(s1)C(=O)c1sccc1C2=O strictly below 20%?
class 1

Below 20% on growth? Entry CCOc1ccc(C(CN2CCOCC2)C(C)=O)cc1OC (stereo not drawn)
class 0

In the record for Oc1ccc(Cl)cc1C(c1cc(Cl)ccc1O)C(Cl)(Cl)Cl , is growth less than 20%?
class 1

###

Test system: HCT-15 colon
testSummary: NCI-60 one-dose screen, 48 h
experimentalConditions: 10 µM unless noted
Compounds without any hit were thinned out: in the full panel of roughly 83,000, 20% have a hit. Activity calls are given as the source filed them. How the source made its calls: active means growth percent below 10; inactive means the rest.
Hi there, use one of these labels in your reply, thanks! yes = active, no = inactive

Completed entries (count: 5):
molecule	className
C1=C(c2ccccc2)c2ccccc2C1	no
CCCCC(CCc1ccc([N+](=O)[O-])cc1)(C(C)=O)C(=O)OCC (stereo not drawn)	no
CC1(C)N=c2cc3c(cc2N1c1ccc(Cl)cc1)=Nc1ccccc1N3c1ccc(Cl)cc1	no
COc1cc(/C=C/c2ccnc3ccccc23)cc(OC)c1OC	no
NC1=C(Br)C(=O)c2ncccc2C1=O	yes

Would you mind telling me which call this test gave CCC1C[N+]2=C(c3cc(OC)c(OC)cc3CC2)c2c1cc1n2CCc2cc(OC)c(OC)cc2-1 (stereo not drawn) ?
no

Assay result, entry O=[N+]([O-])c1ccc(C2N(Cc3ccc(Cl)cc3)CCN2Cc2ccc(Cl)cc2)cc1 — outcome?
no

Please state the recorded outcome for this molecule: O=C(c1ccccc1)C(O)C(Br)(CBr)c1ccccc1 (stereo not drawn)
no

Could you kindly confirm the outcome this assay logged for CC(C)c1ccc(Nc2n[nH]c(=S)s2)cc1 ?
no

# outcome recorded in this test, key = O=C1C=Cc2ccccc2/C1=C/c1nc(-c2ccccc2)oc1O
no

Outcome? CCc1cnc2ccccc2c1/C=C/c1ccc(N(C)C)cc1
no

What was the test verdict on O=C1C=C(Cl)C(=O)c2ccccc21 ?
no
